# Target: T1, FtsZ (purified, C. crescentus) (Caulobacter crescentus, UniProt B8H080 1-508)
# T1 sequence (looked up): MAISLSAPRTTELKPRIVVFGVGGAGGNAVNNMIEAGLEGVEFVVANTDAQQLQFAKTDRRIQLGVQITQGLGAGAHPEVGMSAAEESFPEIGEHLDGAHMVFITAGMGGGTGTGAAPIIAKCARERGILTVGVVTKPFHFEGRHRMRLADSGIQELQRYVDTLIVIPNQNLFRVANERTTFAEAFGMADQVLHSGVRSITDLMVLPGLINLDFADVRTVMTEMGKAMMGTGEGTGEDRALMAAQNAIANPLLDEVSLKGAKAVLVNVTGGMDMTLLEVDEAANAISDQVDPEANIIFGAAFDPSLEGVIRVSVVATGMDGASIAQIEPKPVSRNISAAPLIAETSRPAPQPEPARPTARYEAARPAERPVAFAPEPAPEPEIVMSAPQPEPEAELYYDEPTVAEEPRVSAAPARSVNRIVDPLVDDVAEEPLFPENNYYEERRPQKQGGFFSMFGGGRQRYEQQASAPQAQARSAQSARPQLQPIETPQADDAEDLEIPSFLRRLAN
# Experiment Notes: cell-based or functional assay
Attribute Measured: % of FtsZ GTPase rate

# Binder, Meas Value
rows = [
    ("FzlA^UE1 (Y223A D227K F228A) (natural protein, Caulobacter crescentus, FzlA, Caulobacter crescentus, with Y223A D227K F228A; also called unknown essential activity; source: E. coli Rosetta (DE3) pLysS, purified (HisTrap, His6-SUMO cleaved)) MSVERTLHHFPLDPASRQVRLALGEKRLPFVEMQVRYWEMPPEFTSLNPSGMPPVLVETKHQRNLVICETRAILEHIEETETEPPLLGRDPAERAEARRLLQWFDRKFDNEVNGFLLHEKMEKRLLRMGAPDLAALRQGREALRMHLGYIESLLQTRDWLAGRRMSLADFAAAAHLSVIDYFGDVPWKDFQAAKTWYMKLKSRPCFRPILADRWPGLAPAAHADDLKA", "77.3%"),
    ("FzlA^NH3 (R144D) (natural protein, Caulobacter crescentus, FzlA, Caulobacter crescentus, with R144D; also called no helices; source: E. coli Rosetta (DE3) pLysS, purified (HisTrap, His6-SUMO cleaved)) MSVERTLHHFPLDPASRQVRLALGEKRLPFVEMQVRYWEMPPEFTSLNPSGMPPVLVETKHQRNLVICETRAILEHIEETETEPPLLGRDPAERAEARRLLQWFDRKFDNEVNGFLLHEKMEKRLLRMGAPDLAALRQGREALDMHLGYIESLLQTRDWLAGRRMSLADFAAAAHLSVIDYFGDVPWKDFQAAKTWYMKLKSRPCFRPILADRWPGLAPAAHYDDLDF", "89%"),
    ("FzlA^UN1 (P131A) (natural protein, Caulobacter crescentus, FzlA, Caulobacter crescentus, with P131A; also called unknown nonessential activity; source: E. coli Rosetta (DE3) pLysS, purified (HisTrap, His6-SUMO cleaved)) MSVERTLHHFPLDPASRQVRLALGEKRLPFVEMQVRYWEMPPEFTSLNPSGMPPVLVETKHQRNLVICETRAILEHIEETETEPPLLGRDPAERAEARRLLQWFDRKFDNEVNGFLLHEKMEKRLLRMGAADLAALRQGREALRMHLGYIESLLQTRDWLAGRRMSLADFAAAAHLSVIDYFGDVPWKDFQAAKTWYMKLKSRPCFRPILADRWPGLAPAAHYDDLDF", "55.7%"),
]

Value source: paper PMC5760450
